Origin of measurements: ChEMBL document CHEMBL5380833

experiment.description: Cmax in Balb/c mouse at 10 mg/kg, ip measured upto 24 hrs by LC-MS/MS analysis
Assay type: ADME, organism-based
Design: dose 10 mg/kg, time < 24 hrs, route ip
conditions.used: in vivo
outcome.measure: Cmax (ng/mL)

1. CC1(C)CCc2c(C(=O)Nc3cnn([C@@H](CCN4CCN(CCC5CCN(c6ccc7c(c6)C(=O)N(C6CCC(=O)NC6=O)C7=O)CC5)CC4)c4ccccc4)c3)n[nH]c2C1.O=C(O)C(F)(F)F (some centres not stated)
2. CN(CCCCCC(=O)Nc1ccc2c(c1)C(=O)N(C1CCC(=O)NC1=O)C2=O)CC[C@@H](c1ccccc1)n1cc(NC(=O)c2n[nH]c3c2CCC(C)(C)C3)cn1.O=C(O)C(F)(F)F (some centres not stated)
Task item: Which record shows the lower Cmax: the first, 1 , or the second, 2 ? Choose, then provide that item's label.
Reply: 2
(2: 1240 ng/mL, 1: 3420 ng/mL)
